Listed next: entries and their corresponding % Collagen Binding, Dried Human.
biological target: human collagen type I (human) (UniProt P02452); test: dried collagen assay, 5 uM peptide
Sequence (P02452 162-1218 limits assumed, chain 1 of 2): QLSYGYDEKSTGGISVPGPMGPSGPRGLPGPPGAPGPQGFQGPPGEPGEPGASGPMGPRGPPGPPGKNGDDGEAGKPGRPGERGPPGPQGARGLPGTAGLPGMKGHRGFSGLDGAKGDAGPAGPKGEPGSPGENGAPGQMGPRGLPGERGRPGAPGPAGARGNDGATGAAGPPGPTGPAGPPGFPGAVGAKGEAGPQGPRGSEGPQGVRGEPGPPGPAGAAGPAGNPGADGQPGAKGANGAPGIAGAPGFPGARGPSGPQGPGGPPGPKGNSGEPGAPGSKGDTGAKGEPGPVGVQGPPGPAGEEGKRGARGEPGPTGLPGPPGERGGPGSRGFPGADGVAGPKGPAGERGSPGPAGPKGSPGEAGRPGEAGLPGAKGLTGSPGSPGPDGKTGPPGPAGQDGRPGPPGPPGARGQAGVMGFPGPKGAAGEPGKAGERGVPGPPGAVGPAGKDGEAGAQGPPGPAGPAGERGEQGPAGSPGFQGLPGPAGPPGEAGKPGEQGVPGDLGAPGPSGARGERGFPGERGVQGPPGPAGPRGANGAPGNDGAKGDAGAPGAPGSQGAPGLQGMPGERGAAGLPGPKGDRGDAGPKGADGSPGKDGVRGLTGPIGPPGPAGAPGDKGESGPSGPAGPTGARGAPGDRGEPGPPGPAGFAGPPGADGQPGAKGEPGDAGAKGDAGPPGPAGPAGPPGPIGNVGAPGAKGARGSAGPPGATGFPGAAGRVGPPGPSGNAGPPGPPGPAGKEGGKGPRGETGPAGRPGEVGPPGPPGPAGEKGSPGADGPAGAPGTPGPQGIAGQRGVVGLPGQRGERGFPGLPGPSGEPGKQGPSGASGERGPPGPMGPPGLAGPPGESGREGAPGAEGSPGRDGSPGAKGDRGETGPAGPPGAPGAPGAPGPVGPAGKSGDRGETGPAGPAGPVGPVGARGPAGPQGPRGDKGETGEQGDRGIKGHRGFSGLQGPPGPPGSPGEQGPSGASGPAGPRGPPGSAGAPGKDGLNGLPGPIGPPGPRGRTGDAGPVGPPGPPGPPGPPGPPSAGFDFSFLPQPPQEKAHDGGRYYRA
Sequence (P08123 80-1119 limits assumed, chain 2 of 2, further chain): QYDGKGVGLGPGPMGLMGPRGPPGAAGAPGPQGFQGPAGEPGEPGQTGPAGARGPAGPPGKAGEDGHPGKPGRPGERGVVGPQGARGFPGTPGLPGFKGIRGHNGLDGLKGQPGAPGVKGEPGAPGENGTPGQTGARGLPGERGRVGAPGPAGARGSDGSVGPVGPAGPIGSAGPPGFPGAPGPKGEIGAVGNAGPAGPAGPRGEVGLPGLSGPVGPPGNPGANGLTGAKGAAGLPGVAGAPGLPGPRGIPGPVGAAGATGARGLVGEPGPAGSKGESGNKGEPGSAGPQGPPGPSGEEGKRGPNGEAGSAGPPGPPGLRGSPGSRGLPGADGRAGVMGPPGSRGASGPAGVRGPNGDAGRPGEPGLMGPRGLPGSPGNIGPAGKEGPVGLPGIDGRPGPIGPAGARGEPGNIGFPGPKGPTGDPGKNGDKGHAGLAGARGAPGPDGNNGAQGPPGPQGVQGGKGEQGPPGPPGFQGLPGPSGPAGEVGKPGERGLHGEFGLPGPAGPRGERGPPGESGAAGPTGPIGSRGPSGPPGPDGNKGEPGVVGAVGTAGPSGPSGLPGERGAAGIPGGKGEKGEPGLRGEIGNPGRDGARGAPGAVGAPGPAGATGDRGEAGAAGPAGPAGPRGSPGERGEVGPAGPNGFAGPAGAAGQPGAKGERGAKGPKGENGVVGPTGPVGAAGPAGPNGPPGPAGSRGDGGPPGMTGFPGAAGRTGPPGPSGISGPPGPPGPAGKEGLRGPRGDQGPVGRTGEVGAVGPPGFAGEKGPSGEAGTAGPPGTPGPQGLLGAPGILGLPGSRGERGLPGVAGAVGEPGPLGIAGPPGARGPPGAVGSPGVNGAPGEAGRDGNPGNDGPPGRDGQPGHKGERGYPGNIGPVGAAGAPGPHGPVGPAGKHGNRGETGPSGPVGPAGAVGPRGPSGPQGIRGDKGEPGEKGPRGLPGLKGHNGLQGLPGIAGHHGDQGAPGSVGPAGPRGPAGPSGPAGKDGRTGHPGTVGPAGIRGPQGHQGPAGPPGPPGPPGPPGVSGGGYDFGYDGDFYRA
Bridge positions count the residues as written; N and C are the ends. Square brackets hold non-standard residues; d marks the D form. Ends that are not written are not given here.
Field format: number, assumed %, no unit text.

| binder | % Collagen Binding, Dried Human [%] |
| --- | --- |
| DWTCS[dS]DEYTWHCNYE (disulfide 4-13 (inferred); not fully specified (C-terminus); printed as D W T C S s D E Y T W H C N Y E) [SEQ ID NO: 180] | 81 |
| GQWTCSG[dD]EYTWHCNYE (disulfide 5-14 (inferred); not fully specified (C-terminus)) [SEQ ID NO: 169] | 11 |
| YHACYQAGCWI[dW] (disulfide 4-9 (inferred)) [SEQ ID NO: 162] | 18 |
| YHACY[dQ]AGCWIW (disulfide 4-9 (inferred)) [SEQ ID NO: 157] | 37 |

Q: // returns reported % Collagen Binding, Dried Human for input Y[dH]ACYQAGCWIW (disulfide 4-9 (inferred)) [SEQ ID NO: 153]
Result: 0
